system: ENR+CD organoids (ISC to Paneth cell differentiation); test: Primary screen: basal (non-stimulated) lysozyme secretion LYZ.NS, 2.5-D 384-well ENR+CD organoid differentiation; assay type: cell-based, mouse; details: primary screen, dose 0.40 uM, FC relative to plate median
Give Dose.FC.LYZ.NS for every item shown.
One number for each entry, in log2 fold change.

[[record]]
compound = "CCOC(=O)c1ccc(N2NC(=O)/C(=C/c3ccc([N+](=O)[O-])o3)C2=O)cc1"
tested_on = "ENR+CD organoids (ISC to Paneth cell differentiation)"
test_value = 0.089


I need Dose.FC.LYZ.NS for every entry listed below, if you could help.
1. O=C1NC(=O)C(c2ccccc2[N+](=O)[O-])=C1Nc1ccc(O)c(Cl)c1
2. Oc1ccc(Nc2nc(-c3ccc(Cl)cc3)cs2)cc1
3. NC(=O)c1ccc(-c2nc(-c3ccccn3)c(-c3ccc4c(c3)OCO4)[nH]2)cc1
4. CC(NC(=O)c1ccccc1/N=C/c1c(O)ccc2ccccc12)c1ccccc1 (centres unmarked)
5. CNC(=C[N+](=O)[O-])NCCSCc1ccc(CN(C)C)o1

1. 0.012
2. 0.219
3. 0.174
4. 0.000
5. 0.011

Dear colleague, could you send me Dose.FC.LYZ.NS for each of the items below? Thanks.
1. O=[N+]([O-])c1ccc2c(c1)S(=O)(=O)C=C2
2. CCn1c(N)c(C(=O)NC)c(=O)c2ccc(C#C[C@@](C)(O)COC)nc21

1. 0.022
2. 0.089

---

tested on: ENR+CD organoids (ISC to Paneth cell differentiation); test: Primary screen: CCh-stimulated lysozyme secretion LYZ.S, 2.5-D 384-well ENR+CD organoid differentiation; type: cell-based, mouse; details: primary screen, dose 10.00 uM
I'd appreciate it if you could supply Dose.FC.LYZ.S values for the items below.
One number for each entry, in log2 fold change.

Worked examples follow.
[[record]]
molecule = "C[C@@H](O[C@H]1OCCN(Cc2n[nH]c(=O)[nH]2)[C@H]1c1ccc(F)cc1)c1cc(C(F)(F)F)cc(C(F)(F)F)c1 [Aprepitant]"
test_value = "−0.119"

[[record]]
molecule = "NC(=O)Nc1sc(-c2ccc(F)cc2)cc1C(N)=O"
test_value = "−0.294"

[[record]]
molecule = "COc1ccc([C@]2(C#N)CC[C@@H](C(=O)O)CC2)cc1OC1CCCC1"
test_value = "−0.045"

[[record]]
molecule = "COc1ccc2cccc(CCNC(C)=O)c2c1"
test_value = 0.008

[[record]]
molecule = "CN1CCc2cc3c(cc2[C@H]1[C@@H]1OC(=O)c2c1ccc1c2OCO1)OCO3 [(+)-Bicuculline]"
test_value = 0.072

[[record]]
molecule = "Cl.N[C@@H]1C[C@H]1c1ccccc1 (racemic) [Tranylcypromine (2-PCPA) HCl]"
test_value = "−0.096"

[[record]]
molecule = "CCC(COC(=O)c1cc(OC)c(OC)c(OC)c1)(c1ccccc1)N(C)C (centres unmarked)"
test_value = "−0.332"


# evaluate next
Kindly state the measured Dose.FC.LYZ.S obtained for OC[C@H]1O[C@@H](c2ccc(Cl)c(Cc3ccc(O[C@H]4CCOC4)cc3)c2)[C@H](O)[C@@H](O)[C@@H]1O with ENR+CD organoids (ISC to Paneth cell differentiation).
−0.022

---

test system: ENR+CD organoids; assay: Primary screen: ATP (CellTiter-Glo 3D, CTG) cell number/viability, 2.5-D 384-well ENR+CD organoids; settings: primary screen; dose 0.08 uM; FC vs plate median
Mark yes for Dose.FC.CTG under 0.08 log2 fold change, no if at or over.

Examples with answers:
[[record]]
molecule = "CC[C@@H]1/C=C/C=C/C[C@H](C)[C@H](O)[C@](C)(O)C(=O)[C@H](C)[C@@H](O)[C@H](C)C(=O)[C@H](C)[C@@H](O)[C@H](C)/C=C/C(=O)O[C@H]2[C@@H](C)[C@@H](CC1)O[C@@]1(CC[C@@H](C)[C@@H](C[C@H](C)O)O1)[C@@H]2C"
tested_on = "ENR+CD organoids"
label_class = "yes"

[[record]]
molecule = "CS(=O)(=O)c1cccc(CNc2nc(Nc3ccc4c(c3)CCC(=O)N4)ncc2C(F)(F)F)c1"
tested_on = "ENR+CD organoids"
label_class = "yes"

[[record]]
molecule = "Cc1[nH]c(/C=C2\\C(=O)Nc3ccc(S(=O)(=O)Cc4c(Cl)cccc4Cl)cc32)c(C)c1C(=O)N1CCC[C@@H]1CN1CCCC1"
tested_on = "ENR+CD organoids"
label_class = "no"


Is Dose.FC.CTG of Cc1[nH]c2ccccc2c1CCNCc1ccc(/C=C/C(=O)NO)cc1 strictly below 0.08 log2 fold change?
no

Please check: Dose.FC.CTG for O=c1cc(N2CCOCC2)oc2c1ccc1ccccc12 , strictly under 0.08 log2 fold change or not?
no

Lab note: confirm whether the reported Dose.FC.CTG for this molecule is below 0.08 log2 fold change, equality not counting. molecule: C1=N/C2=N/c3ccc(OCCN4CCCC4)c(c3)COC/C=C/COCc3cccc(c3)C(=C1)N2 [Pacritinib (SB1518)]
yes

---

For each record, write down the corresponding Dose.FC.CTG.
system: ENR+CD organoids; test: Primary screen: ATP (CellTiter-Glo 3D, CTG) cell number/viability, 2.5-D 384-well ENR+CD organoids; conditions: primary screen, dose 2.00 uM;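 also: compounds given at plating and again on day 3 over a 6-day differentiation from ENR+CV stem-cell-enriched precursors, ATP measured on day 6, plate median as control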
Counter-ions that a name gives are not always drawn.
Numbers only, in log2 fold change.

Illustrative cases are given below, each with its answer.
[[record]]
compound = "COc1cc2/c(=N/c3ccc(Br)cc3F)nc[nH]c2cc1OCC1CCN(C)CC1 [Vandetanib (ZD6474)]"
observation_type = "Dose.FC.CTG"
test_value = "−0.874"

[[record]]
compound = "CC(C)OC(=O)OCOP(=O)(CO[C@H](C)Cn1cnc2c(N)ncnc21)OCOC(=O)OC(C)C [Tenofovir Disoproxil Fumarate]"
observation_type = "Dose.FC.CTG"
test_value = "−0.158"

[[record]]
compound = "CC(=O)O[C@]1(C(C)=O)CC[C@H]2[C@@H]3C=C(Cl)C4=CC(=O)[C@@H]5C[C@@H]5[C@]4(C)[C@H]3CC[C@@]21C [Cyproterone Acetate]"
observation_type = "Dose.FC.CTG"
test_value = "−0.143"

[[record]]
compound = "CNC(=O)[C@H](Cc1ccccc1)NC(=O)[C@H](CC(C)C)[C@H](CSc1cccs1)C(=O)NO"
observation_type = "Dose.FC.CTG"
test_value = "−0.049"

[[record]]
compound = "COc1cc(Nc2ncc(F)c(Nc3ccc4c(n3)N(COP(=O)(O)O)C(=O)C(C)(C)O4)n2)cc(OC)c1OC [Fostamatinib (R788)]"
observation_type = "Dose.FC.CTG"
test_value = "−0.231"


Go through the list and state Dose.FC.CTG for each entry.
1. CC(C)(C)c1cc(/C=C(\C#N)C(N)=S)cc(C(C)(C)C)c1O
2. O=C(O)C(Cc1ccccc1[N+](=O)[O-])=NNc1nc(-c2ccc(Cl)c(Cl)c2)cs1 (mixture of isomers)
3. CC(C)c1c(C(=O)Nc2ccccc2)c(-c2ccccc2)c(-c2ccc(F)cc2)n1CC[C@@H](O)C[C@@H](O)CC(=O)[O-].CC(C)c1c(C(=O)Nc2ccccc2)c(-c2ccccc2)c(-c2ccc(F)cc2)n1CC[C@@H](O)C[C@@H](O)CC(=O)[O-].[Ca+2]
4. CC(C)(C)NC(=O)[C@H]1CC[C@H]2[C@@H]3CC[C@H]4NC(=O)C=C[C@]4(C)[C@H]3CC[C@]12C [Finasteride, reference compound]
5. O=C(Nc1cccc(C(F)(F)F)c1)Nc1cc(S(=O)(=O)NC2CC2)ccc1-c1ccsc1
6. C[C@@H]1C(=O)O[C@H]2C[C@@]34[C@H]5C[C@@H](C(C)(C)C)[C@]36[C@@H](OC(=O)[C@@H]6O)O[C@@]4(C(=O)O5)[C@]21O [Ginkgolide A]

["−0.232", 0.127, "−1.085", 0.073, 0.298, 0.040]

Lab note: each compound below needs its Dose.FC.CTG filled in.
1. CC1=C(C(=O)OC2CCCCC2)C(c2ccc([N+](=O)[O-])cc2)C2=C(CC(C)(C)CC2=O)N1 (stereo not shown)
2. O=c1cc(-c2ccc(O)cc2)oc2cc(O)cc(O)c12

1. 0.076
2. 0.315

---

system: ENR+CD organoids (ISC to Paneth cell differentiation); experiment: Secondary (validation) screen: LYZ.NS basal lysozyme secretion, 2.5-D 384-well ENR+CD organoids; type: cell-based, mouse; conditions: […]; 6-day ENR+CD; vs ENR+CD+DMSO
observation-type: Dose.FC.LYZ.NS (log2 fold change)
One number for each entry, in log2 fold change.

Worked cases, Dose.FC.LYZ.NS given:
[[record]]
compound = "NC1(Cc2ccc(Cl)cc2)CCN(c2ncnc3[nH]ccc23)CC1 [CCT128930]"
test_value = "−0.160"

[[record]]
compound = "CC(C)(C)NC(=O)[C@H]1CC[C@H]2[C@@H]3CC[C@H]4NC(=O)C=C[C@]4(C)[C@H]3CC[C@]12C [Finasteride, reference compound]"
test_value = "−0.203"

[[record]]
compound = "NC(=O)c1ccc(-c2nc(-c3ccccn3)c(-c3ccc4c(c3)OCO4)[nH]2)cc1 [SB431542]"
test_value = 0.116

[[record]]
compound = "COc1cc(Nc2c(C#N)cnc3cc(OCCCN4CCN(C)CC4)c(OC)cc23)c(Cl)cc1Cl [Bosutinib (SKI-606), Bosutinib, reference compound]"
test_value = 0.068

[[record]]
compound = "CCOc1ccc(Cc2cc([C@@H]3O[C@H](CO)[C@@H](O)[C@H](O)[C@H]3O)ccc2Cl)cc1 [Dapagliflozin, reference compound]"
test_value = "−0.060"


Let's switch to this compound now.
Quick one: Dose.FC.LYZ.NS of O=C(/C=C\n1cnc(-c2cc(C(F)(F)F)cc(C(F)(F)F)c2)n1)NNc1cnccn1 [KPT-330] ?
0.244

Reference for the values: patent US20220323406A1
